# target: human 5HT1A receptor (Homo sapiens, UniProt P08908)
# Construct: expressed in transfected cells; host or cells: COS-7 cells, transient (pCEXV-3 vector)
# Sequence (P08908 whole entry): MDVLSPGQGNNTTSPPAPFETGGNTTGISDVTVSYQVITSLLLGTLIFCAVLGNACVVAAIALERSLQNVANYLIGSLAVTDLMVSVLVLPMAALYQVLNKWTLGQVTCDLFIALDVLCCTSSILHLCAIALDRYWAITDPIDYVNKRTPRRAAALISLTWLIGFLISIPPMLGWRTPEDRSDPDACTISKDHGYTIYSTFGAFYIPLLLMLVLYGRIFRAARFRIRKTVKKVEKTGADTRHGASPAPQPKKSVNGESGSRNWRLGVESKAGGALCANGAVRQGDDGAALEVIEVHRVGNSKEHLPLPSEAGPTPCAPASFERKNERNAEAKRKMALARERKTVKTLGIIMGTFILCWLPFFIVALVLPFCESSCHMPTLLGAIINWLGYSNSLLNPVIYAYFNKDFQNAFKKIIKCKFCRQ
# protocol: Radioligand binding, 5-HT1A receptor (3H-8-OH-DPAT)
# experimentalConditions: read-out: h5HT1A Ki; Table 7
# Experimental: 5-HT1A Receptor: The cDNA corresponding to the 5-HT1A receptor open reading frames and variable non-coding 5'-and 3'-regions, was cloned into the eukaryotic expression vector pCEXV-3. […] Radioligand binding assays were performed as described above for the 5-HT2A receptor, except that ^3H-8-OH-DPAT was used as the radioligand and nonspecific binding was determined by the addition of 10 µM mianserin. […]

| structureString | Ki (µM) |
| --- | --- |
| COC[C@@H]1[C@@H](c2ccccc2)OCCN1c1nc(Nc2ccc(C)cc2)cc(N2CCCCC2)n1 | 29.2 |

* * *

# target: human α1D adrenergic receptor (Homo sapiens)
# Construct: expressed in transfected cells
# Sequence (P25100 whole entry): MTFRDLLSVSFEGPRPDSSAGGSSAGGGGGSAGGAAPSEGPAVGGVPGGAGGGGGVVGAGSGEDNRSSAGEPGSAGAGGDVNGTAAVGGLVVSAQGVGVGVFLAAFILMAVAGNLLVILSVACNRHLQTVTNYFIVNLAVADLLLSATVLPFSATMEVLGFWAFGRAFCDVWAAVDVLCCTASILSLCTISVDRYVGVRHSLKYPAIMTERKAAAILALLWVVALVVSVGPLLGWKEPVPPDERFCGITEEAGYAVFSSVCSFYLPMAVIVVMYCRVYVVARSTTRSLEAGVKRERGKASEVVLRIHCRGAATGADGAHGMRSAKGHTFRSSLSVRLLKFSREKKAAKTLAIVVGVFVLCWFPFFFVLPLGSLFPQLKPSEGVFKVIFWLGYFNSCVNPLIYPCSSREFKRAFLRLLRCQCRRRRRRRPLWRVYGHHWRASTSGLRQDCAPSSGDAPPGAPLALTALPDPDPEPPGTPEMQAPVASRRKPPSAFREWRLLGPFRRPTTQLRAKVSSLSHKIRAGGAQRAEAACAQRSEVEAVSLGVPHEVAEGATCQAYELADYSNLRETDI
# protocol: Radioligand binding, α1D adrenergic receptor
# experimentalConditions: Table 9; read-out: hα1D Ki

| compound | target | Ki |
| --- | --- | --- |
| Cc1ccc(Nc2cc(N3CCCCC3)nc(N(C)CCc3ccccc3)n2)cc1 [Example 22] | human α1D adrenergic receptor (Homo sapiens) | 368 nM |
| Cc1ccc(Nc2cc(N3CCCCC3)nc(N(C)CCc3c[nH]c4ccccc34)n2)cc1 [Example 11] | human α1D adrenergic receptor (Homo sapiens) | 264 nM |
| COc1cccc(Nc2cc(N3CCCCC3)nc(N(C)CCc3c[nH]c4ccccc34)n2)c1 [Example 17] | human α1D adrenergic receptor (Homo sapiens) | 221 nM |
| CN(C)c1cc(Nc2ccc(Cl)c(Cl)c2)nc(Nc2ccccc2)n1 [Example 60] | human α1D adrenergic receptor (Homo sapiens) | 4230 nM |
| O=C1C(=Nc2ccc(Br)cc2)c2ccccc2N1c1ccccc1 [Example 98] | human α1D adrenergic receptor (Homo sapiens) | 1890 nM |
| CN(CCc1c[nH]c2ccccc12)c1nc(Nc2ccc(F)c(F)c2)cc(N2CCCCC2)n1 [Example 15] | human α1D adrenergic receptor (Homo sapiens) | 480 nM |
| O=C1C(=Nc2cccc(Cl)c2)c2ccccc2N1c1ccccc1 [Example 94] | human α1D adrenergic receptor (Homo sapiens) | 4030 nM |
| Cc1ccc(Nc2cc(N3CCCCC3)nc(N3CCN(c4ncccc4C(F)(F)F)CC3)n2)cc1 [Example 34] | human α1D adrenergic receptor (Homo sapiens) | 1240 nM |
| O=C1C(=Nc2ccc(C(F)(F)F)cc2)c2ccccc2N1c1ccccc1 [Example 95] | human α1D adrenergic receptor (Homo sapiens) | 3470 nM |
| O=C1C(=Nc2ccc(Cl)cc2)c2ccccc2N1c1ccccc1 [Example 97] | human α1D adrenergic receptor (Homo sapiens) | 6450 nM |
| Cc1ccc(Nc2cc(N(C)C)nc(N(C)CCc3c[nH]c4ccccc34)n2)cc1 [Example 77] | human α1D adrenergic receptor (Homo sapiens) | 217 nM |

* * *

# target: rat D3 receptors (Rattus norvegicus, UniProt P19020)
# Construct: purchased BioSignal, Inc. (Montreal, Canada)
# Sequence (P19020 whole entry): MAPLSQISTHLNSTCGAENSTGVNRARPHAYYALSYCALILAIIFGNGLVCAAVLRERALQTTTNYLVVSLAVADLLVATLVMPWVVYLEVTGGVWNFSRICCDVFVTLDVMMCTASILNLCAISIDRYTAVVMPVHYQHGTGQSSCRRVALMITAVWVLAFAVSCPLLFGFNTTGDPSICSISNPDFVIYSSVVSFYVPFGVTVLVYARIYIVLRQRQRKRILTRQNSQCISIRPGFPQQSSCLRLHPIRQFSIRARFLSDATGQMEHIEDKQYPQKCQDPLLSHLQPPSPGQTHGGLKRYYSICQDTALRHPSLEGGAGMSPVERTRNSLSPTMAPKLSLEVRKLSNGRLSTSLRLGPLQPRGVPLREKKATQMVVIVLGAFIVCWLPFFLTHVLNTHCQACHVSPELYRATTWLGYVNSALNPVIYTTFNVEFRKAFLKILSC
# protocol: Radioligand binding, dopamine D3 receptor
# experimentalConditions: Table 10; Ki rD3 divided by Ki hGAL3
We begin with a simple list: items and their reported selectivity ratio rD3.

| structureString | target | selectivity ratio rD3 |
| --- | --- | --- |
| O=C1C(=Nc2ccc(Cl)cc2)c2ccccc2N1c1ccccc1 | rat D3 receptors (Rattus norvegicus, UniProt P19020) | >100 |
| Cc1ccc(Nc2cc(N(C)C)nc(N(C)CCc3c[nH]c4ccccc34)n2)cc1 | rat D3 receptors (Rattus norvegicus, UniProt P19020) | >30 |
| O=C1C(=Nc2cccc(C(F)(F)F)c2)c2ccccc2N1c1ccccc1 | rat D3 receptors (Rattus norvegicus, UniProt P19020) | >100 |
| COC[C@@H]1[C@@H](c2ccccc2)OCCN1c1nc(Nc2ccc(C)cc2)cc(N2CCCCC2)n1 | rat D3 receptors (Rattus norvegicus, UniProt P19020) | >30 |

* * *

# target: human α2C adrenoceptor (Homo sapiens, UniProt P18825)
# Construct: expressed in transfected cells
# Sequence (P18825 whole entry): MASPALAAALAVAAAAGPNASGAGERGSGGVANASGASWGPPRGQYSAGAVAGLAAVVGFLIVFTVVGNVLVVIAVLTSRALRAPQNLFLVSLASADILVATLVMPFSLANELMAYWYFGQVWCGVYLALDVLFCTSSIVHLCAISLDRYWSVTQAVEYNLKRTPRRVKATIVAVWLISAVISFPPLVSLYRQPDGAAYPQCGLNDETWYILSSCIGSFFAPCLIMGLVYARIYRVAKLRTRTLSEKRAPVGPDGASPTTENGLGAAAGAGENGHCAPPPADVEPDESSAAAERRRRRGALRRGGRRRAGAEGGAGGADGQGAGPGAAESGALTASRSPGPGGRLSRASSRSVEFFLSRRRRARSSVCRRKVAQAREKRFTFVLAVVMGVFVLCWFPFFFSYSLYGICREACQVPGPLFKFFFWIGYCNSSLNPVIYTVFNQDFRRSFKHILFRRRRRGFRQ
# protocol: Radioligand binding, α2C adrenergic receptor
# experimentalConditions: Table 9; read-out: hα2C Ki

| structureString | target | Ki |
| --- | --- | --- |
| O=C1C(=Nc2ccc(C(F)(F)F)cc2)c2ccccc2N1c1ccccc1 | human α2C adrenoceptor (Homo sapiens, UniProt P18825) | 48.6 µM |
| O=C1C(=Nc2cccc(Cl)c2)c2ccccc2N1c1ccccc1 | human α2C adrenoceptor (Homo sapiens, UniProt P18825) | 47.9 µM |
| Cc1ccc(Nc2cc(N3CCCCC3)nc(N(C)CCc3ccccc3)n2)cc1 | human α2C adrenoceptor (Homo sapiens, UniProt P18825) | 2.74 µM |
| Cc1ccc(Nc2cc(N(C)C)nc(N(C)CCc3c[nH]c4ccccc34)n2)cc1 | human α2C adrenoceptor (Homo sapiens, UniProt P18825) | 0.634 µM |
| COc1cccc(Nc2cc(N3CCCCC3)nc(N(C)CCc3c[nH]c4ccccc34)n2)c1 | human α2C adrenoceptor (Homo sapiens, UniProt P18825) | 10.3 µM |
| Cc1ccc(Nc2cc(N3CCCCC3)nc(N(C)CCc3c[nH]c4ccccc34)n2)cc1 | human α2C adrenoceptor (Homo sapiens, UniProt P18825) | 3 µM |
| CN(C)c1cc(Nc2ccc(Cl)c(Cl)c2)nc(Nc2ccccc2)n1 | human α2C adrenoceptor (Homo sapiens, UniProt P18825) | 7.2 µM |
| O=C1C(=Nc2ccc(Cl)cc2)c2ccccc2N1c1ccccc1 | human α2C adrenoceptor (Homo sapiens, UniProt P18825) | > 50 µM |
| Cc1ccc(Nc2cc(N3CCCCC3)nc(N3CCN(c4ncccc4C(F)(F)F)CC3)n2)cc1 | human α2C adrenoceptor (Homo sapiens, UniProt P18825) | 8.83 µM |
| CN(CCc1c[nH]c2ccccc12)c1nc(Nc2ccc(F)c(F)c2)cc(N2CCCCC2)n1 | human α2C adrenoceptor (Homo sapiens, UniProt P18825) | 8.2 µM |
| O=C1C(=Nc2ccc(Br)cc2)c2ccccc2N1c1ccccc1 | human α2C adrenoceptor (Homo sapiens, UniProt P18825) | > 50 µM |

* * *

We begin with a simple list: items and their reported selectivity ratio h5HT1F.
# target: human 5HT1F (Homo sapiens, UniProt P30939)
# Construct: expressed in transfected cells
# Sequence (P30939 1-366): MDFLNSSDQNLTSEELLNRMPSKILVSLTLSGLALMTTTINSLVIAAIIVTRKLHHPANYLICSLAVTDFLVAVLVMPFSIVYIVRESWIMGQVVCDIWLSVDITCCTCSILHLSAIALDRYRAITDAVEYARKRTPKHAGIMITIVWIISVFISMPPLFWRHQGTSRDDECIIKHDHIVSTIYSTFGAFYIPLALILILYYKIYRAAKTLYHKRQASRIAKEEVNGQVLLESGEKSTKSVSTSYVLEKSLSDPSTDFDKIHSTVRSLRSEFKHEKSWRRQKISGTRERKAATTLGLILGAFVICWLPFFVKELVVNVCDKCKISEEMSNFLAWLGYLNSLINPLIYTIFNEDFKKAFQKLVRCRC
# protocol: Radioligand binding, 5HT1F receptor ([3H]-serotonin)
# experimentalConditions: Table 8; Ki h5HT1F divided by Ki hGAL3

| structureString | selectivity ratio h5HT1F |
| --- | --- |
| O=C1C(=Nc2cccc(C(F)(F)F)c2)c2ccccc2N1c1ccccc1 | >100 |
| Cc1ccc(Nc2cc(N3CCCCC3)nc(N3CCN(c4ncccc4C(F)(F)F)CC3)n2)cc1 | >100 |
| O=C1C(=Nc2cccc(Cl)c2)c2ccccc2N1c1ccccc1 | >100 |
| COc1cccc(Nc2cc(N3CCCCC3)nc(N(C)CCc3c[nH]c4ccccc34)n2)c1 | >100 |

* * *

# target: human 5HT7 (Homo sapiens, UniProt P34969)
# Construct: expressed in transfected cells
# Sequence (P34969 1-445 isoform P34969-2): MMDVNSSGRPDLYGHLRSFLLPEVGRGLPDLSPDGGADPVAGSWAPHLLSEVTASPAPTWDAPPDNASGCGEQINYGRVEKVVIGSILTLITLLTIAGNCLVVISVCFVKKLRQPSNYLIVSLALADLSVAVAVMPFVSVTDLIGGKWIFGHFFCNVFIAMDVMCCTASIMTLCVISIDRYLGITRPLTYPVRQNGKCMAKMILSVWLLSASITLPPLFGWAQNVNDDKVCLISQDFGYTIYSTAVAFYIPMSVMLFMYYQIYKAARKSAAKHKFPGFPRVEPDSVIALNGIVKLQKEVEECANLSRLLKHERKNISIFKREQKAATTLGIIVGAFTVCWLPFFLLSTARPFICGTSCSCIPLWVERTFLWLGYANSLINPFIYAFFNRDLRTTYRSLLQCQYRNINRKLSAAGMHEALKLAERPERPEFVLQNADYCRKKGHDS
# protocol: Radioligand binding, 5HT7 receptor ([3H]-serotonin)
# experimentalConditions: read-out: h5HT7 Ki; Table 7
propertyMeasured: Ki (µM)

| compound | propertyMeasured | measurementUnits | valueReported |
| --- | --- | --- | --- |
| COC[C@@H]1[C@@H](c2ccccc2)OCCN1c1nc(Nc2ccc(C)cc2)cc(N2CCCCC2)n1 [Example 49] | Ki | µM | 12.3 |

* * *

# target: human GAL2 receptor (Homo sapiens, UniProt O43603)
# Construct: expressed in transfected cells
# Sequence (O43603 1-387): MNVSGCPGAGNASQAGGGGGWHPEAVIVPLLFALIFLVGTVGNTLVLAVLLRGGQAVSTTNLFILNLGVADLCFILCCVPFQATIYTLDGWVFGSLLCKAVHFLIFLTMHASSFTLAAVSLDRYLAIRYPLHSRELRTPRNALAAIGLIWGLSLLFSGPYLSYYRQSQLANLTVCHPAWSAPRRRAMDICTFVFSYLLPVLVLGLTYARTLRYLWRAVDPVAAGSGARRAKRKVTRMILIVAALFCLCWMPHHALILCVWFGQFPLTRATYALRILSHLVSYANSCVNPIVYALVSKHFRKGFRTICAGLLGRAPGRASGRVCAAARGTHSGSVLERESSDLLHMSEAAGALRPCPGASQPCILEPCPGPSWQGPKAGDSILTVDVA
# protocol: Radioligand binding at cloned human GAL2 receptor
# experimentalConditions: pyrimidines, read-out: Ki GalR2
We begin with a simple list: items and their reported Ki.
propertyMeasured: Ki (nM)

| molecule | valueRelationSign | valueReported |
| --- | --- | --- |
| CN(C)c1cc(Nc2ccc(Cl)c(Cl)c2)nc(N(C)CCc2c[nH]c3ccccc23)n1 | = | 1860 |
| CN(C)c1cc(Nc2ccc(Cl)cc2)nc(Nc2ccccc2)n1 | > | 5000 |
| Cc1ccc(Nc2cc(N(C)C)nc(N(C)CCc3c[nH]c4ccccc34)n2)cc1 | = | 709 |
| COCCN(CCc1c[nH]c2ccccc12)c1nc(Nc2ccc(C)cc2)cc(N2CCCCC2)n1 | = | 1770 |
| Cc1ccc(Nc2cc(N3CCCCC3)nc(N3CCC(O)(c4ccccc4)CC3)n2)cc1 | = | 1020 |
| Cc1ccc(Nc2cc(N3CCCCC3)nc(N3CCN(c4cc(C(F)(F)F)ccn4)CC3)n2)cc1 | = | 1860 |
| Cc1ccc(Nc2cc(N3CCCCC3)nc(N3CCN(c4ccccn4)CC3)n2)cc1 | = | 2610 |
| CN(C)c1cc(NC2CC3CCC2C3)nc(Nc2ccccc2)n1 (centres unmarked) | > | 5000 |
